These measurements were taken from a melting point compilation (Tetko et al.).

RESULT_TYPE: melting point

stdin: Quick one: melting point of CS(=O)(=O)Nc1cccc(O)c1 ?
stdout: 93 to 95 °C

stdin: Entry to check: Cc1cc(-c2ccccc2)nc2cc(O)nn12
stdout: 231 to 233 °C

stdin: Then COc1ccc(C(=O)Nc2sc3c(c2C(=O)O)CCCC3)cc1 ?
stdout: 216 to 220 °C

stdin: And the next one, O=c1[nH]c2ccc(S(=O)(=O)Cl)cc2[nH]1 ?
stdout: 210 to 212 °C

stdin: Now this one: O=C(O)c1cc(/C=C/c2cccnc2)nc2ccc(Br)cc12
stdout: 335 to 337 °C

stdin: Here is the next compound: N#Cc1ccc(OCc2ccccc2)nc1
stdout: 71 to 73 °C

stdin: Same read-out for Cc1ccc(N)cc1S(=O)(=O)NC(C)(C)C ?
stdout: 131 to 133 °C

stdin: Try this compound next: CC(Oc1ccccc1F)C(=O)NN (stereo not drawn)
stdout: 64 to 66 °C

stdin: Param item: CCN(CC)C(=O)c1ccc(NC(=O)CCl)cc1
stdout: 115 to 117 °C

stdin: Queued: CN1CCCN(c2ccc(C#N)cc2Cl)CC1
stdout: 40 to 42 °C

stdin: Param item: O=S(=O)(Cl)c1cnc2ccsc2c1
stdout: 129 to 131 °C

stdin: Same lookup for Cc1ccccc1Nc1nc(Cl)c(C=O)s1 , please.
stdout: 153 to 155 °C

stdin: Query NC(=O)C1CCOC1 (stereo not drawn) next
stdout: 109 to 111 °C
